Target: membrane IL-6R on BAF/gp130/IL6R/TNF cells (Homo sapiens)
Sequence: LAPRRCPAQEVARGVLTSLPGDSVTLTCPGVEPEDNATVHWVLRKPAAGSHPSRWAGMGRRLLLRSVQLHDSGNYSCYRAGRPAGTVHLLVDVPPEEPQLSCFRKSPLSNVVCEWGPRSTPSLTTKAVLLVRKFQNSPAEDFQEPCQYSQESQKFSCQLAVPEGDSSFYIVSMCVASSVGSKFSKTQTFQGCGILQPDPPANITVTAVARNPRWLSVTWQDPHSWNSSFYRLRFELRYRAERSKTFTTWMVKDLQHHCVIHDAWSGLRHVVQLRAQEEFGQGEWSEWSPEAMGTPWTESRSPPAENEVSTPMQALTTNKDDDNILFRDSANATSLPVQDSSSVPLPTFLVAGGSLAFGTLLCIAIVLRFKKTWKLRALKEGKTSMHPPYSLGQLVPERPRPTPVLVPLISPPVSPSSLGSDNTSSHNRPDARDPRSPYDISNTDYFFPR
Assay: flow cytometry
pKd: −log10 of the molar value.

Biopolymer sequence: GGGGAGGCUGUGGUGAGGG [AIR-3A Atto647N]
pKd: 8.07
